Numbers sourced from patent US10017713B2.

experiment: Surfactant solubility in hydrofluoroether (HFE) solvents by visual clarity; assay type: physicochemical; conditions: Novec 71IPA, room temperature (23° C.)

| compound | Max. Solubility |
| --- | --- |
| O=S(=O)(NCCOCCO)C(F)(F)C(F)(F)C(F)(F)C(F)(F)F [H-FBS(EE) (III), C4F9SO2N(H)CH2CH2OCH2CH2OH] | >10 wt % |
| O=S(=O)(N(CCOCCO)CCOCCO)C(F)(F)C(F)(F)C(F)(F)C(F)(F)F [FBS(EE)2 (IV), C4F9SO2N(CH2CH2OCH2CH2OH)2] | >10 wt % |
| O=S(=O)(N(CCO)CCO)C(F)(F)C(F)(F)C(F)(F)C(F)(F)F | 8.1 wt % |
| O=S(=O)(N(CCO)CCOCCO)C(F)(F)C(F)(F)C(F)(F)C(F)(F)F [FBSE(EE) (V), C4F9SO2N(CH2CH2OCH2CH2OH) (CH2CH2OH)] | >10 wt % |
| O=S(=O)(NCCO)C(F)(F)C(F)(F)C(F)(F)C(F)(F)F | >10 wt % |
| CC(O)CN(CCO)S(=O)(=O)C(F)(F)C(F)(F)C(F)(F)C(F)(F)F (stereo not drawn) | >10 wt % |
